System: MRSA
Experiment: Kill or inhibit growth/proliferation; morphology, biofilm and growth disruption (Tables 5, 6); also: test concentration or dose not given here
Format: cell-based, Methicillin-resistant Staphylococcus aureus
Parameters: key: A: Peptide aggregates; B: Less hyphal formation; Clumps; Diffuse clumps and small polyps; F: Diffuse growth; H: Thin; I: Growth inhibition; Microcolony formation; Rippled; Small polyps; Thick; W: Halo formation on top, microlonies on bottom
Measure: Organism, effect

Some substances with known Organism, effect results, for comparison:
>  <Substance>
TKKIELKRFVDAFVKKSYENYILERELKKLIKAINEELPTK [PF-600]

>  <Value Reported>
MRSA (M)

$$$$
>  <Substance>
PF-022: peptide having multiple activities (chain 1 MINELKNKNSGIMNNYVVTKESKL; chain 2 MINELKNKNSGIMNNYVVTKESKL; Peptide with targeting and/or antimicrobial activity)

>  <Value Reported>
MRSA (R)

$$$$
>  <Substance>
PF-178: peptide having multiple activities (EVYSSPTNNVAITVQNN; Peptide with targeting and/or antimicrobial activity)

>  <Value Reported>
MRSA (M)

$$$$
>  <Substance>
PF-540: peptide having multiple activities (chain 1 KSILILIKVIFIGQTTIIL; chain 2 KSILILIKVIFIGQTTIIL; Peptide with targeting and/or antimicrobial activity)

>  <Value Reported>
MRSA (H)

$$$$
>  <Substance>
SKFKVLRKIIIKEYKGELMLSIQKQR [PF-530]

>  <Value Reported>
MRSA (C)

$$$$
>  <Substance>
PF-360: peptide having multiple activities (chain 1 MEQKVKVIFVPRSKPDNQLKTFVSAVLFKA; chain 2 MEQKVKVIFVPRSKPDNQLKTFVSAVLFKA; Peptide with targeting and/or antimicrobial activity)

>  <Value Reported>
MRSA (H)

$$$$
>  <Substance>
PF-394: peptide having multiple activities (chain 1 VLKEECYQKN; chain 2 VLKEECYQKN; Peptide with targeting and/or antimicrobial activity)

>  <Value Reported>
MRSA (C)

$$$$
>  <Substance>
PF-036: peptide having multiple activities (chain 1 ILNRLSRIVSNEVTSLIYSLK; chain 2 ILNRLSRIVSNEVTSLIYSLK; Peptide with targeting and/or antimicrobial activity)

>  <Value Reported>
MRSA (R)

$$$$

PF-452: peptide having multiple activities (chain 1 MNNWIKVAQISVTVINEVIDIMKEKQNGGK; chain 2 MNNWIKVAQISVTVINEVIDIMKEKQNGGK; Peptide with targeting and/or antimicrobial activity) yielded Organism, effect of MRSA (C)

====

Test system: S. pneumoniae
Assay: Kill or inhibit growth/proliferation; morphology, biofilm and growth disruption (Tables 5, 6); also: test concentration or dose not given here
Type: cell-based, Streptococcus pneumoniae
Design: key: A: Peptide aggregates; B: Less hyphal formation; Clumps; Diffuse clumps and small polyps; F: Diffuse growth; H: Thin; I: Growth inhibition; Microcolony formation; Rippled; Small polyps; Thick; W: Halo formation on top, microlonies on bottom
Ends that are not written are not given here.

>  <Substance>
PF-526: peptide having multiple activities (chain 1 VLLLFIFQPFQKQLL-NH2; chain 2 VLLLFIFQPFQKQLL-NH2)

>  <Organism, effect>
S. pneumoniae (R)

$$$$
>  <Substance>
PF-450: peptide having multiple activities (chain 1 HRNLIILQRTIFI; chain 2 HRNLIILQRTIFI; Peptide with targeting and/or antimicrobial activity)

>  <Organism, effect>
S. pneumoniae (C)

$$$$
>  <Substance>
PF-614: peptide having multiple activities (GLDIYA; Peptide with targeting and/or antimicrobial activity)

>  <Organism, effect>
S. pneumoniae (R)

$$$$
>  <Substance>
PF-576: peptide having multiple activities (chain 1 AYSGELPEPLVRKMSKEQVRSVMGK; chain 2 AYSGELPEPLVRKMSKEQVRSVMGK; Peptide with targeting and/or antimicrobial activity)

>  <Organism, effect>
S. pneumoniae (C)

$$$$

Data origin: patent US20110039762A1
